Data credit: ChEMBL document CHEMBL1629477

- Test system: NCI-H460
- EXPERIMENT DESCRIPTION: Growth inhibition of human NCI-H460 cells after 48 hrs by sulforhodamine B assay
- Format: functional
- CONDITION DESCRIPTION: NCI-H460, 48 h
OUTCOME MEASURE: GI50 (µM)
Write it as a number; the unit µM goes unstated.

Sample answers from the record:
>  <SMILES ENTRY>
COC(=O)c1sc2cc(-c3cnc4ccccc4c3)cnc2c1N

>  <GI50 (µM)>
9.5

$$$$
>  <SMILES ENTRY>
COC(=O)c1sc2cc(-c3ccc4c(ccn4C)c3)cnc2c1N

>  <GI50 (µM)>
20.3

$$$$
>  <SMILES ENTRY>
COC(=O)c1sc2cc(-c3cncc4ccccc34)cnc2c1N

>  <GI50 (µM)>
7.7

$$$$
>  <SMILES ENTRY>
COC(=O)c1sc2cc(-c3cccs3)cnc2c1N

>  <GI50 (µM)>
18

$$$$
>  <SMILES ENTRY>
COC(=O)c1sc2cc(-c3ccc(N)cc3)cnc2c1N

>  <GI50 (µM)>
37.1

$$$$
>  <SMILES ENTRY>
COC(=O)c1sc2cc(-c3ccc4ccccc4c3)cnc2c1N

>  <GI50 (µM)>
43.5

$$$$

Exercise: Consider the compound COC(=O)c1sc2cc(-c3ccc(-c4cccs4)s3)cnc2c1N and give its measured GI50.
Solution: 0.7

Exercise: Consider the compound COC(=O)c1sc2cc(-c3cc(OC)cc(OC)c3)cnc2c1N and give its measured GI50.
Solution: 31.8

Exercise: Consider the compound COC(=O)c1sc2cc(-c3ccsc3)cnc2c1N and give its measured GI50.
Solution: 12.4

Exercise: Consider the compound COC(=O)c1sc2cc(-c3ccccc3N)cnc2c1N and give its measured GI50.
Solution: 3.8

* * *

- Tested on: MCF7
- EXPERIMENT DESCRIPTION: Growth inhibition of human MCF7 cells after 48 hrs by sulforhodamine B assay
- Type: functional
- CONDITION DESCRIPTION: MCF7, 48 h
OUTCOME MEASURE: GI50 (µM)
Write it as a number; the unit µM goes unstated.

>  <SMILES ENTRY>
COC(=O)c1sc2cc(-c3ccc4c(ccn4C)c3)cnc2c1N

>  <OUTCOME MEASURE>
GI50

>  <REPORTED MEASUREMENT>
23

$$$$

Exercise: Could you share what GI50 was measured for COC(=O)c1sc2cc(-c3ccc(N)cc3)cnc2c1N , tested on MCF7?
Solution: 108

Exercise: Could you share what GI50 was measured for COC(=O)c1sc2cc(-c3ccc4ccccc4c3)cnc2c1N , tested on MCF7?
Solution: 50.9

Exercise: Could you share what GI50 was measured for COC(=O)c1sc2cc(-c3cnc4ccccc4c3)cnc2c1N , tested on MCF7?
Solution: 9.8

Exercise: Could you share what GI50 was measured for COC(=O)c1sc2cc(-c3ccsc3)cnc2c1N , tested on MCF7?
Solution: 12.7

Exercise: Could you share what GI50 was measured for COC(=O)c1sc2cc(-c3cccs3)cnc2c1N , tested on MCF7?
Solution: 26.9

* * *

- Test system: MCF7
- EXPERIMENT DESCRIPTION: Growth inhibition of human MCF7 cells after 48 hrs by sulforhodamine B assay
- Format: functional
- CONDITION DESCRIPTION: MCF7, 48 h
OUTCOME MEASURE: GI50 (µM)
Write it as a number; the unit µM goes unstated.

>  <SMILES ENTRY>
COC(=O)c1sc2cc(-c3cc(OC)cc(OC)c3)cnc2c1N

>  <GI50 [µM]>
56.6

$$$$
>  <SMILES ENTRY>
COC(=O)c1sc2cc(-c3cncc4ccccc34)cnc2c1N

>  <GI50 [µM]>
10.7

$$$$
>  <SMILES ENTRY>
COC(=O)c1sc2cc(-c3ccccc3N)cnc2c1N

>  <GI50 [µM]>
4.2

$$$$

Moving on to the next molecule.
Exercise: Consider the molecule COC(=O)c1sc2cc(-c3ccc(-c4cccs4)s3)cnc2c1N and give its measured GI50.
Solution: 1
